Tested on: RXF 393 renal
TEST DETAILS: NCI tumour cell line growth inhibition, 48 h; in the data active = GI50 below about 0.43 µM; inactive = the rest
Outcomes: T (active), F (inactive)

>  <COMPOUND>
CC(=O)[O][Hg][CH2]C1(C)COC(C)([CH2][Hg][O]C(C)=O)CO1 (centres undefined)

>  <TARGET OF ASSAY>
RXF 393 renal

>  <CATEGORY>
F

$$$$
>  <COMPOUND>
CC(=O)N1N=C(c2ccc(Nc3nc(Nc4ccc(F)cc4)nc(Nc4ccc(Cl)cc4)n3)cc2)CC1c1ccc(N(C)C)cc1 (centres undefined)

>  <TARGET OF ASSAY>
RXF 393 renal

>  <CATEGORY>
F

$$$$
>  <COMPOUND>
O=C(Nc1nc(-c2ccccc2)cs1)c1cc(O)c(O)c(O)c1

>  <TARGET OF ASSAY>
RXF 393 renal

>  <CATEGORY>
F

$$$$
>  <COMPOUND>
C=C1[C@@H](O)C[C@H]2C(C)(C)C[C@H](Cl)C[C@]2(C)[C@H]1C[C@H](O)[C@H]1CC(=O)NC1=O

>  <TARGET OF ASSAY>
RXF 393 renal

>  <CATEGORY>
T

$$$$
>  <COMPOUND>
Cn1ccc2c3c(=O)cc[nH]c3ccc21

>  <TARGET OF ASSAY>
RXF 393 renal

>  <CATEGORY>
F

$$$$
>  <COMPOUND>
C/C=C/C=C/CCCCCCCCCCCCC[C@]1(OC)C=CC(CC(=O)OC)OO1 (some centres undefined)

>  <TARGET OF ASSAY>
RXF 393 renal

>  <CATEGORY>
F

$$$$
>  <COMPOUND>
C=C1C(=O)O[C@H]2[C@H]1CC/C(COC(=O)C(=O)c1c[nH]c3ccc(Cl)cc13)=C\CC[C@@]1(C)O[C@@H]21

>  <TARGET OF ASSAY>
RXF 393 renal

>  <CATEGORY>
F

$$$$
>  <COMPOUND>
C[n+]1cc2cc3c(cc2c2ccccc21)OCO3

>  <TARGET OF ASSAY>
RXF 393 renal

>  <CATEGORY>
F

$$$$
>  <COMPOUND>
COc1cc2oc(-c3cccc(C(=O)Nc4ccc(C)cc4)c3)cc(=O)c2c(OC)c1OC

>  <TARGET OF ASSAY>
RXF 393 renal

>  <CATEGORY>
F

$$$$
